Tested on: ZEAMA Sileno
protocol_summary: Seed treatment with safener; post-emergence herbicide application
Assay type: in vivo, maize
assay_conditions: HER dose 8 g a.i./ha, Cyprosulfamide seed treatment 0.5 g a.i./kg seed, Final assessment
endpoint_name: HER effect + SAF (crop damage with safener) (%)

{"columns": ["compound", "assay_target", "assay_value"],
 "data": [
  ["COC(=O)C1(C)CC(NC(=O)C2(C(C)(F)F)CC(c3cc(F)cc(F)c3)=NO2)CO1 (mixture of isomers)", "ZEAMA Sileno", 0],
  ["COCCOC(=O)C1C=CC(NC(=O)C2(CCl)CC(c3cc(F)cc(F)c3)=NO2)C1 (stereo not drawn)", "ZEAMA Sileno", 0],
  ["CC1(C(=O)NC2C=CC(C(=O)OCCSC(F)(F)F)C2)CC(c2cc(F)cc(F)c2)=NO1 (stereo not drawn)", "ZEAMA Sileno", 0],
  ["COC(=O)C1C=CC(NC(=O)C2(C)CC(c3cc(F)cc(F)c3)=NO2)C1 (stereo not drawn)", "ZEAMA Sileno", 10],
  ["C=CC1(C(=O)NC2COC(C(=O)OC)C2)CC(c2cc(F)cc(F)c2)=NO1 (stereo not drawn) [Example 1.69]", "ZEAMA Sileno", 17],
  ["COC(=O)C1C=CC(NC(=O)C2(C(F)(F)F)CC(c3cccc(F)c3)=NO2)C1 (stereo not drawn)", "ZEAMA Sileno", 10],
  ["C=CC1(C(=O)NC2C=CC(C(=O)OC)C2)CC(c2cc(F)cc(F)c2)=NO1 (stereo not drawn)", "ZEAMA Sileno", 15],
  ["C=CC1(C(=O)NC2C=C(C(=O)OC)OC2)CC(c2cc(C)cc(C)c2)=NO1 (stereo not drawn)", "ZEAMA Sileno", 22],
  ["C=CC1(C(=O)NC2CC=C(C(=O)OC)C2)CC(c2cc(F)cc(F)c2)=NO1 (mixture of isomers)", "ZEAMA Sileno", 3],
  ["COC(=O)C1=CC(NC(=O)C2(C)CC(c3cc(F)cc(F)c3)=NO2)CC1 (stereo not drawn)", "ZEAMA Sileno", 13],
  ["COC(=O)C1C=CC(NC(=O)C2(C)CC(c3cc(Cl)cc(C#N)c3)=NO2)C1 (mixture of isomers)", "ZEAMA Sileno", 0],
  ["C=CCOC(=O)C1CC(NC(=O)C2(C=C)CC(c3cc(F)cc(F)c3)=NO2)CO1 (mixture of isomers)", "ZEAMA Sileno", 0],
  ["COCCOC(=O)C1C=CC(NC(=O)C2(C(F)(F)F)CC(c3cc(F)cc(C#N)c3)=NO2)C1 (stereo not drawn)", "ZEAMA Sileno", 10],
  ["CC1(C(=O)NC2C=CC(C(=O)OCCSCc3ccccc3)C2)CC(c2cc(F)cc(F)c2)=NO1 (stereo not drawn)", "ZEAMA Sileno", 5],
  ["COCCOC(=O)C1C=CC(NC(=O)C2(C)CC(c3cc(Cl)cc(C#N)c3)=NO2)C1 (stereo not drawn)", "ZEAMA Sileno", 10]
]}
